biological target: Full-length inactive AKT1 (Homo sapiens, UniProt P31749); test: Inactive Akt Alpha Screen Assay; assay type: biochemical; conditions: AlphaScreen assay (values not marked with *); read-out: Akt1 IC50, (AlphaScreen) (μM) (or if marked with “*” HTRF assay)
Sequence (P31749 whole entry): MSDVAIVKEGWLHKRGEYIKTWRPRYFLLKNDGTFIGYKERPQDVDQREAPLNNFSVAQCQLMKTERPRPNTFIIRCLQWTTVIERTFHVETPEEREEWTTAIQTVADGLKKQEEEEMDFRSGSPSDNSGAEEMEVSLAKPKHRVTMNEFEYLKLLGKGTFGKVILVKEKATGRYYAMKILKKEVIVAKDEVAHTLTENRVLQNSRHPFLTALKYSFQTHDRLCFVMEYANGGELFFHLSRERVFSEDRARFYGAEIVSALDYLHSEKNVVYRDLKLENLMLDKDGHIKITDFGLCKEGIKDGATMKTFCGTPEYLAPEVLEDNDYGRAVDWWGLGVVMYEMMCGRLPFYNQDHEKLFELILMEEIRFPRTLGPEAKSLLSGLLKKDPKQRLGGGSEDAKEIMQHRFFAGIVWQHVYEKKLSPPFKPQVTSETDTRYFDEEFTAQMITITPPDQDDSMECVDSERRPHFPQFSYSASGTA
Readout Type: IC50 (µM)
Answers are plain numbers, in µM.

Nc1ncccc1-c1nc2ccc(-c3ccnc(O)c3)nc2n1-c1ccc(C2(N)CCC2)cc1 | 0.0039

Each of the following entries comes with a recorded value; kindly state IC50 for each.
1. Nc1ncccc1-c1nc2ccc(-c3cccc(N4CCCC4)c3)nc2n1-c1ccc(C2(N)CCC2)cc1
2. CN(C)S(=O)(=O)Nc1cccc(-c2ccc3nc(-c4cccnc4N)n(-c4ccc(C5(N)CCC5)cc4)c3n2)c1
3. Nc1ncccc1-c1nc2ccc(-c3cccc(N4CCC(O)CC4)c3)nc2n1-c1ccc(C2(N)CCC2)cc1

1. 0.0023
2. 0.011
3. 0.01

###

For each record, write down the corresponding pIC50.
molecular target: Full-length inactive AKT1 (Homo sapiens); assay: Inactive Akt Alpha Screen Assay; assay type: biochemical; settings: values not marked with "*"; read-out: Akt1 IC50, (AlphaScreen)
Give bare numbers, as −log10 of the molar value.

Cc1cnc2c(c1)nc(-c1cccnc1N)n2-c1ccc(CNC(=O)c2ccccn2)cc1 | 6.11
Cc1cnc2c(c1)nc(-c1cccnc1N)n2-c1ccc(CC(=O)Nc2ccc3nc(C)ccc3c2)cc1 | 7.33
Cc1cnc2c(c1)nc(-c1cccnc1N)n2-c1ccc(CNC(=O)c2cccc3ccccc23)cc1 | 7.30
Nc1ncccc1-c1nc2ccc(-c3ccsc3)nc2n1-c1ccc(C2(N)CCC2)cc1 | 8.00
Nc1ncccc1-c1nc2ccc(-c3ccncc3)nc2n1-c1ccc(CNC(=O)c2cccc(F)c2)cc1 | 7.44
CC(=O)Nc1cccc(NC(=O)Cc2ccc(-n3c(-c4cccnc4N)nc4cc(C)cnc43)cc2)c1 | 6.96
Nc1ncccc1-c1nc2cc(Br)cnc2n1-c1ccc(CNS(=O)(=O)c2c(F)cccc2F)cc1 | 6.70
Cc1ccc(S(=O)(=O)Nc2cccc(-c3ccc4nc(-c5cccnc5N)n(-c5ccc(C6(N)CCC6)cc5)c4n3)c2)cc1 | 8.55

Recorded pIC50 (molecule Nc1ncccc1-c1nc2cc(-c3cc[nH]c3)cnc2n1-c1ccc(CNC(=O)c2ccccc2)cc1 ): 7.49

###

molecular target: Full-length inactive AKT1 (Homo sapiens, UniProt P31749); test: Inactive Akt Alpha Screen Assay; format: biochemical; conditions: values not marked with "*"; read-out: Akt1 IC50, (AlphaScreen)
For each record, check the reported IC50: if it is below 10 nM write 1 (yes), else write 0 (no).

Cc1ccc2nc(-c3cccnc3N)n(-c3ccc(CNC(=O)c4ccccc4)cc3)c2n1 | 0 (no)
CC(=O)Nc1cccc(-c2nc3c(cc2C)nc(-c2cccnc2N)n3-c2ccc(CNC(=O)c3ccccc3)cc2)c1 | 0 (no)

In the record for Nc1ncccc1-c1nc2ccc(Cl)nc2n1-c1ccc(CNC(=O)c2ccccc2)cc1 , is IC50 less than 10 nM?
0 (no)

# TODO verify IC50 < 10 nM strictly for this compound: Nc1ncccc1-c1nc2ccc(-c3cnccn3)nc2n1-c1ccc(C2(N)CCC2)cc1
1 (yes)

###

molecular target: Full-length inactive AKT1 (Homo sapiens, UniProt P31749); assay: Inactive Akt Alpha Screen Assay; assay type: biochemical; conditions: values not marked with "*"; read-out: Akt1 IC50, (AlphaScreen)
Readout Type: IC50 (nM)
Numbers only, in nM.

Example compounds with recorded IC50:
N#Cc1ccc(S(=O)(=O)NCc2ccc(-n3c(-c4cccnc4N)nc4cc(Br)cnc43)cc2)cc1 | 2100
Nc1ncccc1-c1nc2ccc(-c3ccccn3)nc2n1-c1ccc(C2(N)CCC2)cc1 | 3.7
Nc1ncccc1-c1nc2ccc(-c3ccccc3)nc2n1-c1ccc(C2(NC(=O)Nc3ccccc3)CCC2)cc1 | 54

Count: 3. Required value per item: IC50.
1. Nc1ncccc1-c1nc2ccc(-c3ccc(C(=O)O)o3)nc2n1-c1ccc(CNC(=O)c2cccc(F)c2)cc1
2. COCc1cccc(-c2ccc3nc(-c4cccnc4N)n(-c4ccc(C5(N)CCC5)cc4)c3n2)c1
3. Cc1cnc2c(c1)nc(-c1cccnc1N)n2-c1ccc(CNC(=O)c2ccc(Cl)cc2Cl)cc1

[34, 4, 110]

###

Assign pIC50 to each entry below.
molecular target: Full-length inactive AKT1 (Homo sapiens, UniProt P31749); experiment: Inactive Akt Alpha Screen Assay; type: biochemical; conditions: values not marked with "*"; read-out: Akt1 IC50, (AlphaScreen)
One number for each entry, as −log10 of the molar value.

CC(C)(C)OC(=O)NCc1ccc(-n2c(-c3cccnc3N)nc3ccc(-c4ccc(CO)cc4)nc32)cc1 | 6.35

For the 3 molecules below, give their pIC50 values.
1. Nc1ncccc1-c1nc2ccc(N3CCCCC3)nc2n1-c1ccc(CNC(=O)c2ccccc2)cc1
2. CN(C)c1ccc(-c2ccc3nc(-c4cccnc4N)n(-c4ccc(C5(N)CCC5)cc4)c3n2)cc1
3. COc1cc(F)cc(-c2ccc3nc(-c4cccnc4N)n(-c4ccc(C5(N)CCC5)cc4)c3n2)c1

1: 6.70; 2: 8.01; 3: 8.27

###

biological target: Full-length inactive AKT1 (Homo sapiens, UniProt P31749); assay: Inactive Akt Alpha Screen Assay; type: biochemical; details: values not marked with "*"; read-out: Akt1 IC50, (AlphaScreen)
Readout Type: IC50
State the value with its unit after it.

Answered examples (2):
CC(C)(C)OC(=O)NCc1ccc(-n2c(-c3cccnc3N)nc3ccc(-c4cn[nH]c4)nc32)cc1 [Example 354] | 150 nM
COc1ccc(S(=O)(=O)NCc2ccc(-n3c(-c4cccnc4N)nc4cc(-c5cccnc5)cnc43)cc2)cc1 [Example 206] | 130 nM

Now for the compound whose IC50 we want.
Per the reported Full-length inactive AKT1 (Homo sapiens, UniProt P31749) data, Nc1ncccc1-c1nc2ccc(-c3cc4ccccc4o3)nc2n1-c1ccc(C2(N)CCC2)cc1 [Example 423] has IC50 of 6.6 nM

###

target: Full-length inactive AKT1 (Homo sapiens); assay: Inactive Akt Alpha Screen Assay; type: biochemical; settings: AlphaScreen assay (values not marked with *); read-out: Akt1 IC50, (AlphaScreen) (μM) (or if marked with “*” HTRF assay)
Counter-ions that a name gives are not always drawn.
// NB: equality with 0.009 µM counts as false (0); only IC50 strictly below is true (1)

Use these answered entries as a reference point.
CN(C)C1CCN(c2cccc(-c3ccc4nc(-c5cccnc5N)n(-c5ccc(C6(N)CCC6)cc5)c4n3)c2)CC1 | false (0)
Nc1ncccc1-c1nc2ccc(-c3ccc4[nH]ccc4c3)nc2n1-c1ccc(C2(N)CCC2)cc1 | true (1)
Cc1ccc(-c2ccc3nc(-c4cccnc4N)n(-c4ccc(C5(N)CCC5)cc4)c3n2)cc1O | false (0)
CNC(=O)c1cc(-c2ccc3nc(-c4cccnc4N)n(-c4ccc(C5(N)CCC5)cc4)c3n2)ccc1F | true (1)
Nc1ncccc1-c1nc2ccc(-c3ccc(N4CCOCC4)cc3)nc2n1-c1ccc(C2(N)CCC2)cc1 [Example 465, hydrochloride] | true (1)

With those in mind, consider the next compound.
Quick check: does Nc1ncccc1-c1nc2ccc(-c3cccc4c3CC(=O)N4)nc2n1-c1ccc(C2(N)CCC2)cc1 have IC50 under 0.009 µM?
false (0)

###

target: Full-length inactive AKT1 (Homo sapiens); assay: Inactive Akt Alpha Screen Assay; type: biochemical; conditions: values not marked with "*": AlphaScreen assay; read-out: Akt1 IC50, (AlphaScreen)
Answer each item with its documented IC50.
One number for each entry, in nM.

CS(=O)(=O)c1ccc(-c2cnc3c(c2)nc(-c2cccnc2N)n3-c2ccc(CNC(=O)c3ccccc3)cc2)cc1 | 120
CC(=O)Nc1ccccc1C(=O)NCc1ccc(-n2c(-c3cccnc3N)nc3cccnc32)cc1 | 1410

Each compound below has a reported value. Please supply its IC50.
1. COc1cccc(C(=O)NCc2ccc(-n3c(-c4cccnc4N)nc4cccnc43)cc2)c1
2. Nc1ncccc1-c1nc2cc(-c3ccsc3)cnc2n1-c1ccc(CNC(=O)c2ccccc2)cc1
3. Nc1ccccc1-c1cnc2c(c1)nc(-c1cccnc1N)n2-c1ccc(CNC(=O)c2ccccc2)cc1
4. Cc1cccc(-c2cnc3c(c2)nc(-c2cccnc2N)n3-c2ccc(CNC(=O)c3ccccc3)cc2)c1
5. COc1ccc(S(=O)(=O)NCc2ccc(-n3c(-c4cccnc4N)nc4cc(Br)cnc43)cc2)cc1OC
6. Nc1ncccc1-c1nc2cccnc2n1-c1ccc(CNC(=O)CC(c2ccccc2)c2ccccc2)cc1
7. Nc1ncccc1-c1nc2cc(Br)cnc2n1-c1ccc(CNS(=O)(=O)c2cccc(Cl)c2)cc1

417
50
1600
1100
240
2010
1200

###

molecular target: Full-length inactive AKT1 (Homo sapiens); experiment: Inactive Akt Alpha Screen Assay; assay type: biochemical; details: values not marked with "*"; read-out: Akt1 IC50, (AlphaScreen)
IC50 strictly under 60 nM means Fulfilled; at 60 nM or over means Not fulfilled.

Reference set (8 entries):
Cc1cnc2c(c1)nc(-c1cccnc1N)n2-c1ccc(CNC(=O)c2ccccc2Cc2ccccc2)cc1 [Example 225] | Fulfilled
CC(C)(C)OC(=O)NCc1ccc(-n2c(-c3cccnc3N)nc3ccc(-c4ccncc4)nc32)cc1 [Example 208] | Not fulfilled
CS(=O)(=O)NCc1ccc(-n2c(-c3cccnc3N)nc3cc(-c4cccnc4)cnc32)cc1 [Example 196] | Not fulfilled
Cc1cnc2c(c1)nc(-c1cccnc1N)n2-c1ccc(CNC(=O)OC(C)(C)C)cc1 [Example 227] | Not fulfilled
Nc1ncccc1-c1nc2ccc(-c3ccoc3)nc2n1-c1ccc(CNC(=O)c2cccc(F)c2)cc1 [Example 307] | Fulfilled
CS(=O)(=O)Nc1ccc(-c2ccc3nc(-c4cccnc4N)n(-c4ccc(C5(N)CCC5)cc4)c3n2)cc1 [Example 403] | Fulfilled
Nc1ncccc1-c1nc2cc(-c3cccnc3)cnc2n1-c1ccc(CC(=O)Nc2cccc(F)c2)cc1 [Example 320] | Fulfilled
Cc1cnc2c(c1)nc(-c1cccnc1N)n2-c1ccc(CNC(=O)c2cn(C)c3ccccc23)cc1 [Example 212] | Not fulfilled

Hello, I'm reviewing records and need to know if IC50 of Cc1ccc2cc(NC(=O)Cc3ccc(-n4c(-c5cccnc5N)nc5cc(Br)cnc54)cc3)ccc2n1 [Example 298] is below 60 nM. Could you check?
Fulfilled

Check if IC50 falls below 60 nM for Nc1ncccc1-c1nc2cc(-c3ccc(C(=O)O)o3)cnc2n1-c1ccc(CNC(=O)c2ccccc2)cc1 [Example 240] .
Fulfilled

Hi there! Is IC50 for Nc1ncccc1-c1nc2ccc(-c3cccc(O)c3)nc2n1-c1ccc(C2(N)CCC2)cc1 [Example 389] below 60 nM, do you know?
Fulfilled

I wonder whether COc1cccc(-c2ccc3nc(-c4cccnc4N)n(-c4ccc(C5(N)CCC5)cc4)c3n2)c1F [Example 421] has IC50 below 60 nM. Can you tell?
Fulfilled

Please let me know if Cc1cc2nc(-c3cccnc3N)n(-c3ccc(CNC(=O)c4ccccc4)cc3)c2nc1C [Example 322] shows IC50 below 60 nM.
Not fulfilled

Does Cc1cccc(C(=O)NCc2ccc(-n3c(-c4cccnc4N)nc4cc(C)cnc43)cc2)c1 [Example 216] have IC50 strictly under 60 nM?
Not fulfilled

Report whether reported IC50 is lower than 60 nM (strictly) for NC(=O)c1ccccc1-c1ccc2nc(-c3cccnc3N)n(-c3ccc(C4(N)CCC4)cc3)c2n1 [Example 384]
Fulfilled

Please determine if CC(=O)Nc1cccc(NC(=O)Cc2ccc(-n3c(-c4cccnc4N)nc4ccc(-c5cccc(NC(C)=O)c5)nc43)cc2)c1 [Example 289] is below 60 nM in terms of IC50.
Fulfilled

Find out if reported IC50 for Cc1cnc2c(c1)nc(-c1cccnc1N)n2-c1ccc(CNC(=O)c2ccc(C(C)C)cc2)cc1 [Example 230] is less than 60 nM
Not fulfilled

Consider the molecule Nc1ncccc1-c1nc2cc(-c3ccccc3)cnc2n1-c1ccc(C2(N)CCC2)cc1 [Example 358] . Is its IC50 strictly less than 60 nM?
Fulfilled
